- test description: qHTS for Inhibitors of the Functional Ribonucleoprotein Complex (vRNP) of Lassa (LASV) Arenavirus: Viability assay - alamar blue signal for LASV Primary Screen (AID 1347083); note: nearly all actives have a fitted effect of over 80% in size
- measurement setup: cell viability, alamar blue fluorescence (LASV minigenome counter-screen); series mostly up to 57.5 µM
Results filed as inconclusive are left out. The source made the active and inactive calls. Calls come from the whole dose curve; tested in HEK293 reporter line.
observation type: activity change, negative = reduced viability

{"columns": ["compound", "val"],
 "data": [
  ["COc1cccc(OC)c1C(=O)N[C@@H]1C(=O)N2[C@@H]1SC(C)(C)[C@@H]2C(=O)O", "inactive"],
  ["CCC(=O)c1c(O)cc(O)cc1O", "inactive"],
  ["O=C(O)c1ccccc1C(=O)Nc1ccc(S(=O)(=O)Nc2nccs2)cc1", "inactive"],
  ["O=C(O)[C@@H](O)[C@H](O)[C@H](O)[C@@H](O)C(=O)O", "inactive"],
  ["OC[C@H]1O[C@H](O[C@]2(CCl)O[C@H](CCl)[C@@H](O)[C@@H]2O)[C@H](O)[C@@H](O)[C@H]1Cl", "inactive"],
  ["CCN1CCN(C(=O)N[C@@H](C(=O)N[C@@H]2C(=O)N3[C@@H]2SC(C)(C)[C@H]3C(=O)O)c2ccccc2)C(=O)C1=O", "inactive"],
  ["CCOc1cc(CC(=O)N[C@@H](CC(C)C)c2ccccc2N2CCCCC2)ccc1C(=O)O", "inactive"],
  ["Cc1cc2c(cc1CC(=O)c1sccc1S(=O)(=O)Nc1onc(C)c1Cl)OCO2", "inactive"],
  ["O=C1C(O)=C(O)C(=O)C(O)=C1O", "inactive"],
  ["COc1ccc2cccc(CCNC(C)=O)c2c1", "inactive"],
  ["NCCCNCCSP(=O)(O)O", "inactive"],
  ["Cc1cc(OI)c(C(C)C)cc1-c1cc(C(C)C)c(OI)cc1C", "inactive"],
  ["CC(=O)OCC(=O)[C@@]1(OC(C)=O)[C@@H](C)C[C@H]2[C@@H]3C[C@H](F)C4=CC(=O)C=C[C@]4(C)[C@@]3(F)[C@@H](O)C[C@@]21C", "inactive"],
  ["O=[N+]([O-])c1ccc(/C=N\\O)o1", "inactive"],
  ["O=C(O)c1ccccc1Nc1cccc(C(F)(F)F)c1", "inactive"],
  ["CC(N=C(NC#N)Nc1ccncc1)C(C)(C)C (centres undefined)", "inactive"],
  ["O=C(O)Cc1cccc2ccccc12", "inactive"],
  ["NC(=O)NS(=O)(=O)c1ccc(N)cc1", "inactive"],
  ["CC(=O)c1ccc(O)c(C(N)=O)c1", "inactive"],
  ["CC(C)(C)CC(C)(C)c1ccc(O)c(-n2nc3ccccc3n2)c1", "inactive"],
  ["CN1CCC[C@@H]1c1cccnc1", "inactive"],
  ["Cc1cccc(C)c1NC(=O)CC12CCCN1CCC2", "inactive"],
  ["CCCCCCCCCCCCCCCCOP(=O)([O-])OCC[N+](C)(C)C", "inactive"],
  ["CC(=O)N(c1onc(C)c1C)S(=O)(=O)c1ccc(N)cc1", "inactive"]
]}

###

- test description: qHTS of pediatric cancer cell lines to identify multiple opportunities for drug repurposing: Confirmatory screen for A673 cells (AID 1347110);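 note: cells exposed to compound for 48 h before the viability read; nearly all actives have a fitted effect of over 65% in size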
- measurement setup: A673 Ewing sarcoma cell viability; series mostly up to 45.9 µM
Records with an inconclusive call do not appear. Calls of active or inactive are those of the source. Calls come from the whole dose curve; as a rule, active = well fitted cell-killing curve with a large enough effect; inconclusive = small, poorly fitted or top-dose-only effect; inactive = flat fitted curve, though single readings scatter.
Possible outcomes: active, inactive

{"columns": ["compound", "class name"],
 "data": [
  ["O=C(N/N=C/c1ccc([N+](=O)[O-])o1)c1cc([N+](=O)[O-])cc([N+](=O)[O-])c1O", "inactive"],
  ["O=P1(N(CCCl)CCCl)NCCCO1 (centres undefined)", "inactive"],
  ["COc1cccc2c1C(=O)c1c(O)c3c(c(O)c1C2=O)C[C@@](O)(C(=O)CO)CC3OC1CC(N2CCOC(OC)C2)C(O)C(C)O1 (some centres undefined)", "active"],
  ["CCOP(=S)(OCC)Oc1ccc2c(C)c(Cl)c(=O)oc2c1", "inactive"]
]}
